Listed binders paired with reported pKd
tested-system: T1, RSV F subtype A, furin-cleaved ectodomain stabilized in the prefusion conformation (DS-Cav1) (Respiratory syncytial virus subtype A, UniProt P03420 26-524)
T1 construct: extracellular domain; Trimeric soluble antigen; also called Prefusion subtype A
assay-method-text: BLI, IgG on AHQ sensor, 100 nM antigen
pKd: −log10 of the molar value.
reported-metric: pKd

- binder: "ADI-18900 (antibody, V domains shown, full-length IgG from yeast) VH: EVQLLESGGALVEPGGSLRLSCAASGFSFNTYSMNWVRQGPGKGLEWVATISTSTAGSYYADSVRGRFTISRDNSKNTLYLQMNSLRVEDTAVYYCARDQEVELIDDAFDFWGRGTMVTVSS VL: DIVMTQTHSSLSASVGDRVTITCRASQSISIWVAWYQQKPGKAPNLLIYKASSLQSGVPSRFSGSGSGTEFTLTISSLQPDDSATYYCQQYYTYYSFGQGTKLEIK"
  reported-metric: "pKd"
  readout-value: 8.92
- binder: "ADI-18927 (antibody, V domains shown, full-length IgG from yeast) VH: QVQLVQSGAEVKKPGASVKVSCKASGYTFTDYFIHWVRQAPGEGLEWMGWVNPLSDNTKYSQKFQGRVTMSTDTSITTAYMYLSRLRFDDTAVYFCASQSSPYTPGALDVWGQGTTVTVSS VL: DIQLTQSPSSLPASVGDRVTITCRASQNIGNNLAWYQQKAGRAPKLLIYSASNFHSGVPSRFIGSGSGTVFTLTISSLQPEDFATYFCQQSFTPQFTFGPGTKVEIK"
  reported-metric: "pKd"
  readout-value: 8.45
- binder: "ADI-18935 (antibody, V domains shown, full-length IgG from yeast) VH: QVQLQESGPGLVKPSQTLSLTCTVSGRLLSSGDYYWSWIRQSPGRGLEWIGYVYHSGTTSYNPSLKSRITMTVDTSKNQFNLRLTSVTAADTAVYYCARDLGYSSSSPAFYYGIDFWGPGTMVTVSS VL: EIVLTQSPATLSLSPGQRATLSCRASQSVGNYLAWYQQKPGQAPRLLIYDASNRVTGIPARFSGSGSGTDFTLTISRLESEDFAVYYCQQRSNGVLTFGGGTKVDIK"
  reported-metric: "pKd"
  readout-value: 9.18
- binder: "ADI-18876 (antibody, V domains shown, full-length IgG from yeast) VH: QVQLQESGPGLVKPSQTLSLTCTVSGPSISSGDYYWTWIRQPPGKGLEWIGYIYNSGSTDYNPSLKSRITMSLDRSKNQFSLNLSSVTAADTAVYFCARDVGTLVLPTVAYYYGMDVWGQGTTVTVSS VL: EIVLTQSPGTLSLSPGERATLSCRASESISSSYLAWYQQKPGQAPRLLIYDASSRATGIPDRFSGSGSGTDFTLTISSLEPEDFAVYYCQQYGSSPLVTFGPGTKVDIK"
  reported-metric: "pKd"
  readout-value: 9.15
- binder: "ADI-18926 (antibody, V domains shown, full-length IgG from yeast; also called Antibody Number 280; Ab # 280) VH: EVQLVESGAEVKKPGASVKVSCQTSGYTFSHFGVTWIRQAPGQGLEWLGWISAYNGNTDYADKLQGRLTMTTDTSTNTAYMELRSLRSDDTAVYYCARDPPASAAAMLDYWGQGTLVTVSS VL: DIVMTQSPLSLAVTLGQPASISCKSSQGLEYTDGNTYLSWFQQRPGQSPRRLIYKISNRDSGVPDRFSGSGSGTDFTLRISRVEAEDVGVYYCMQGTHGRGISFGPGTKVDIK"
  reported-metric: "pKd"
  readout-value: 9.60
